Just for reference, ChEMBL document CHEMBL1275272 is where these values come from.

test system: Escherichia coli; test: Antibacterial activity against Escherichia coli after 16 to 18 hrs by serial dilution method; assay type: functional
PROPERTY NAME: inhibition zone (IZ)

>>> result("Cc1ccc(OCc2ccccc2-c2nnc(-c3cc(C)cc(C)c3)o2)cc1")
"11 mm"
>>> result("Cc1ccccc1OCc1ccccc1-c1nn(CNc2ccc(Cl)cc2C(=O)C(F)(F)F)c(=S)o1")
"<10 mm"
>>> result("Cc1ccccc1OCc1ccccc1-c1nnc(SCc2ccccc2)o1")
"<10 mm"

###

tested on: Trichophyton mentagrophytes; test: Antifungal activity against Trichophyton mentagrophytes after 16 to 18 hrs by serial dilution method; format: functional
Below, each entry is listed alongside its reported inhibition zone (IZ).
PROPERTY NAME: inhibition zone (IZ)

>>> result("Cc1cccc(CSc2nnc(-c3ccccc3COc3ccc(Cl)cc3)o2)c1")
"11 mm"
>>> result("Cc1cc(C)cc(-c2nnc(-c3ccccc3COc3ccc(Cl)cc3)o2)c1")
"11 mm"
>>> result("Cc1cccc(OCc2ccccc2-c2nnc(SCc3ccccc3)o2)c1")
"<10 mm"
>>> result("Cc1ccccc1OCc1ccccc1-c1nn(CN2CCOCC2)c(=S)o1")
"11 mm"
>>> result("Cc1ccc(OCc2ccccc2-c2nn(CN3CCOCC3)c(=S)o2)cc1")
"11 mm"
>>> result("COc1cc(-c2nnc(-c3ccccc3COc3cccc(C)c3)o2)cc(OC)c1OC")
"11 mm"
>>> result("Clc1ccc(OCc2ccccc2-c2nnc(SCc3ccc(Cl)cc3Cl)o2)cc1")
"16 mm"
>>> result("Cc1ccc(Cl)c(NCn2nc(-c3ccccc3COc3ccccc3C)oc2=S)c1")
"<10 mm"
>>> result("Cc1cccc(OCc2ccccc2-c2nnc(SCc3ccc(Cl)cc3)o2)c1")
"11 mm"
>>> result("Cc1ccccc1OCc1ccccc1-c1nnc(SCc2ccccc2)o1")
"<10 mm"
>>> result("Cc1ccccc1OCc1ccccc1-c1nnc(-c2ccc(Cl)cc2)o1")
"<10 mm"
>>> result("COc1cc(-c2nnc(-c3ccccc3COc3ccc(C)cc3)o2)cc(OC)c1OC")
"11 mm"
>>> result("Cc1cccc(OCc2ccccc2-c2nnc(-c3ccccc3)o2)c1")
"<10 mm"
>>> result("Cc1ccccc1OCc1ccccc1-c1nnc(-c2ccccc2F)o1")
"16 mm"
>>> result("Cc1cccc(OCc2ccccc2-c2nnc(SCc3ccc(Cl)cc3Cl)o2)c1")
"11 mm"
>>> result("Clc1ccc(CSc2nnc(-c3ccccc3COc3ccc(Cl)cc3)o2)cc1")
"11 mm"
>>> result("O=C(c1cc(Cl)ccc1NCn1nc(-c2ccccc2COc2ccc(Cl)cc2)oc1=S)C(F)(F)F")
"<10 mm"
>>> result("Cc1cccc(OCc2ccccc2-c2nn(CNc3cc(C)ccc3Cl)c(=S)o2)c1")
"<10 mm"
>>> result("Cc1cccc(OCc2ccccc2-c2nnc(-c3cccc4ncccc34)o2)c1")
"<10 mm"
>>> result("Clc1ccc(OCc2ccccc2-c2nnc(-c3ccccc3)o2)cc1")
"<10 mm"
>>> result("Cc1cccc(CSc2nnc(-c3ccccc3COc3cccc(C)c3)o2)c1")
"11 mm"
>>> result("Cc1ccccc1OCc1ccccc1-c1nnc(-c2cccc3ncccc23)o1")
"<10 mm"

###

test system: Aspergillus fumigatus; test: Antifungal activity against Aspergillus fumigatus after 16 to 18 hrs by serial dilution method; assay type: functional; details: Aspergillus fumigatus
PROPERTY NAME: MIC (mg/L)

>>> quantitative_result("Cc1ccccc1OCc1ccccc1-c1nnc(SCc2ccccc2)o1")
25
>>> quantitative_result("Cc1ccc(OCc2ccccc2-c2nnc(-c3ccccc3)o2)cc1")
25
>>> quantitative_result("Cc1cccc(OCc2ccccc2-c2nn(CNc3cccc(C(F)(F)F)c3)c(=S)o2)c1")
6.25
>>> quantitative_result("Cc1cccc(OCc2ccccc2-c2nnc(-c3cc(C)cc(C)c3)o2)c1")
6.25
>>> quantitative_result("Cc1cccc(OCc2ccccc2-c2nn(CN3CCOCC3)c(=S)o2)c1")
12.5
>>> quantitative_result("Cc1ccc(OCc2ccccc2-c2nn(CN3CCOCC3)c(=S)o2)cc1")
12.5
>>> quantitative_result("Cc1cccc(CSc2nnc(-c3ccccc3COc3ccc(Cl)cc3)o2)c1")
12.5
>>> quantitative_result("Cc1ccc(OCc2ccccc2-c2nnc(SCc3ccc(Cl)cc3)o2)cc1")
12.5
>>> quantitative_result("Cc1cccc(CSc2nnc(-c3ccccc3COc3ccccc3C)o2)c1")
6.25
>>> quantitative_result("Clc1ccc(OCc2ccccc2-c2nnc(SCc3ccc(Cl)cc3Cl)o2)cc1")
6.25
>>> quantitative_result("CCSc1nnc(-c2ccccc2COc2ccc(C)cc2)o1")
25
